Assay: Pharmacokinetic parameters of MF-766 in mice
Settings: female, C57/B6, mouse, in vivo, po, 30 mg/kg
QUANTITY_KIND: Tmax
Please state the value followed by its unit.

Report Tmax for O=C(O)c1ccc(C2(NC(=O)c3cccc4ccn(Cc5ccc(C(F)(F)F)cc5)c34)CC2)cc1 please.
30 min
